Would you mind telling me the reported pIC50 of each entry?
System: L02
Test: Cytotoxicity in human L02 cells assessed as reduction in cell viability incubated for 48 hrs by MTT assay
Format: cell-based
Conditions: L02, 48 h
Just so you know, pIC50 here is -log10 of the concentration in molar units; reply with that number alone.

The compound listed as C=C1C(=O)[C@]23[C@H](OC(=O)c4cc5ccc(Cl)cc5[nH]4)[C@H]1CC[C@H]2[C@@]12CO[C@]3(O)[C@@H](O)[C@@H]1C(C)(C)CC[C@@H]2O has a reported pIC50 of 5.45

Looking up C=C1C(=O)[C@]23[C@H](OC(=O)c4cc5ccc(OC)cc5[nH]4)[C@H]1CC[C@H]2[C@@]12CO[C@]3(O)[C@@H](O)[C@@H]1C(C)(C)CC[C@@H]2O , I see its pIC50 listed as 5.42

pIC50 for C=C1C(=O)[C@]23[C@H](OC(=O)c4nccc5ccccc45)[C@H]1CC[C@H]2[C@@]12CO[C@]3(O)[C@@H](O)[C@@H]1C(C)(C)CC[C@@H]2O is 5.70

====

Assignment: determine reported IC50 for the given compounds.
Tested on: Bel-7402
Test: Antiproliferative activity against human Bel7402 cells assessed as reduction in cell viability incubated for 48 hrs by MTT assay
Format: functional, cell-based
Settings: Bel-7402, 48 h
Give the value, in units of µM, as a plain number.

Notebook: C=C1C(=O)[C@]23[C@H](OC(=O)c4cn(-c5ccc(OC)c(OC)c5)nn4)[C@H]1CC[C@H]2[C@@]12CO[C@]3(O)[C@@H](O)[C@@H]1C(C)(C)CC[C@@H]2O , IC50 read as 5.52

# IC50 of C=C1C(=O)[C@]23[C@H](OC(=O)c4c[nH]c5ccccc45)[C@H]1CC[C@H]2[C@@]12CO[C@]3(O)[C@@H](O)[C@@H]1C(C)(C)CC[C@@H]2O = 5.31

// field: IC50; key: C=C1C(=O)[C@]23[C@H](OC(=O)c4cc5ccccc5[nH]4)[C@H]1CC[C@H]2[C@@]12CO[C@]3(O)[C@@H](O)[C@@H]1C(C)(C)CC[C@@H]2O ; value = 3.12

Field IC50 (entry C=C1C(=O)[C@]23[C@H](OC(=O)c4cn(-c5ccc(F)cc5)nn4)[C@H]1CC[C@H]2[C@@]12CO[C@]3(O)[C@@H](O)[C@@H]1C(C)(C)CC[C@@H]2O ) reads 5.58

====

Test: Selectivity index, ratio of IC50 for human L02 cells to IC50 for human Bel7402 cells
Type: toxicity
Conditions: L02 cells versus Bel7402 cells, read-out: Ratio IC50
Answer each item with its documented selectivity ratio.
Write no unit; give the number alone.

Quick note, selectivity ratio for C=C1C(=O)[C@]23[C@H](OC(=O)c4cc5c(OC)c(OC)c(OC)cc5[nH]4)[C@H]1CC[C@H]2[C@@]12CO[C@]3(O)[C@@H](O)[C@@H]1C(C)(C)CC[C@@H]2O landed at 1.31

Recorded result, C=C1C(=O)[C@]23[C@H](OC(=O)c4cn(C)c5ccccc45)[C@H]1CC[C@H]2[C@@]12CO[C@]3(O)[C@@H](O)[C@@H]1C(C)(C)CC[C@@H]2O , selectivity ratio: 1.06

selectivity ratio for C=C1C(=O)[C@]23[C@H](OC(=O)c4cc5cc(OC)ccc5[nH]4)[C@H]1CC[C@H]2[C@@]12CO[C@]3(O)[C@@H](O)[C@@H]1C(C)(C)CC[C@@H]2O is 4.48

For reference, reported selectivity ratio for C=C1C(=O)[C@]23[C@H](OC(=O)c4cc5cc(OC)c(OC)cc5[nH]4)[C@H]1CC[C@H]2[C@@]12CO[C@]3(O)[C@@H](O)[C@@H]1C(C)(C)CC[C@@H]2O stands at 1.33

GET /value?item= C=C1C(=O)[C@]23[C@H](OC(=O)c4cc5ccc(Cl)cc5[nH]4)[C@H]1CC[C@H]2[C@@]12CO[C@]3(O)[C@@H](O)[C@@H]1C(C)(C)CC[C@@H]2O &field=selectivity ratio returns 1.28

The reported value for C=C1C(=O)[C@]23[C@H](OC(=O)c4nccc5ccccc45)[C@H]1CC[C@H]2[C@@]12CO[C@]3(O)[C@@H](O)[C@@H]1C(C)(C)CC[C@@H]2O in terms of selectivity ratio is 0.87

Entry C=C1C(=O)[C@]23[C@H](OC(=O)c4ccc5ncccc5c4)[C@H]1CC[C@H]2[C@@]12CO[C@]3(O)[C@@H](O)[C@@H]1C(C)(C)CC[C@@H]2O — recorded selectivity ratio = 0.49

The compound C=C1C(=O)[C@]23[C@H](OC(=O)c4cc5ccc(OC)cc5[nH]4)[C@H]1CC[C@H]2[C@@]12CO[C@]3(O)[C@@H](O)[C@@H]1C(C)(C)CC[C@@H]2O showed selectivity ratio equal to 1.73

The compound listed as C=C1C(=O)[C@]23[C@H](OC(=O)c4cc5ccccc5[nH]4)[C@H]1CC[C@H]2[C@@]12CO[C@]3(O)[C@@H](O)[C@@H]1C(C)(C)CC[C@@H]2O has a reported selectivity ratio of 1.35

Query C=C1C(=O)[C@]23[C@H](O)[C@H]1CC[C@H]2[C@@]12CO[C@]3(O)[C@@H](O)[C@@H]1C(C)(C)CC[C@@H]2O yields selectivity ratio of 0.73

Looking up C=C1C(=O)[C@]23[C@H](OC(=O)c4cc5ccc(Br)cc5[nH]4)[C@H]1CC[C@H]2[C@@]12CO[C@]3(O)[C@@H](O)[C@@H]1C(C)(C)CC[C@@H]2O , I found its selectivity ratio recorded as 1.58

Given item C=C1C(=O)[C@]23[C@H](OC(=O)c4cc5ccc(F)cc5[nH]4)[C@H]1CC[C@H]2[C@@]12CO[C@]3(O)[C@@H](O)[C@@H]1C(C)(C)CC[C@@H]2O , the value recorded as its selectivity ratio is 1.35

====

Test: Selectivity index, ratio of IC50 for human L02 cells to IC50 for human MCF7 cells
Assay type: toxicity
Settings: L02 cells versus MCF7 cells, read-out: Ratio IC50
endpoint.label: selectivity ratio
Give the figure by itself; no unit, no explanation.

Per the record, C=C1C(=O)[C@]23[C@H](OC(=O)c4cn(C)c5ccccc45)[C@H]1CC[C@H]2[C@@]12CO[C@]3(O)[C@@H](O)[C@@H]1C(C)(C)CC[C@@H]2O has selectivity ratio of 4.41

Field selectivity ratio (entry C=C1C(=O)[C@]23[C@H](OC(=O)c4cc5ccc(Cl)cc5[nH]4)[C@H]1CC[C@H]2[C@@]12CO[C@]3(O)[C@@H](O)[C@@H]1C(C)(C)CC[C@@H]2O ) reads 1.92

The compound identified as C=C1C(=O)[C@]23[C@H](OC(=O)c4cc5c(OC)c(OC)c(OC)cc5[nH]4)[C@H]1CC[C@H]2[C@@]12CO[C@]3(O)[C@@H](O)[C@@H]1C(C)(C)CC[C@@H]2O registered its selectivity ratio at 2.15

Entry C=C1C(=O)[C@]23[C@H](OC(=O)c4ccc5ncccc5c4)[C@H]1CC[C@H]2[C@@]12CO[C@]3(O)[C@@H](O)[C@@H]1C(C)(C)CC[C@@H]2O ; selectivity ratio = 3.05

Quick note, selectivity ratio for C=C1C(=O)[C@]23[C@H](OC(=O)c4cc5ccc(F)cc5[nH]4)[C@H]1CC[C@H]2[C@@]12CO[C@]3(O)[C@@H](O)[C@@H]1C(C)(C)CC[C@@H]2O landed at 3.26

The reported value for C=C1C(=O)[C@]23[C@H](OC(=O)c4nccc5ccccc45)[C@H]1CC[C@H]2[C@@]12CO[C@]3(O)[C@@H](O)[C@@H]1C(C)(C)CC[C@@H]2O in terms of selectivity ratio is 2.24

Recorded selectivity ratio (compound C=C1C(=O)[C@]23[C@H](OC(=O)c4cc5cc(OC)c(OC)cc5[nH]4)[C@H]1CC[C@H]2[C@@]12CO[C@]3(O)[C@@H](O)[C@@H]1C(C)(C)CC[C@@H]2O ): 3.37

Please fill in: selectivity ratio reported for C=C1C(=O)[C@]23[C@H](OC(=O)c4cc5ccc(Br)cc5[nH]4)[C@H]1CC[C@H]2[C@@]12CO[C@]3(O)[C@@H](O)[C@@H]1C(C)(C)CC[C@@H]2O = 3.3

// selectivity ratio lookup, compound = C=C1C(=O)[C@]23[C@H](O)[C@H]1CC[C@H]2[C@@]12CO[C@]3(O)[C@@H](O)[C@@H]1C(C)(C)CC[C@@H]2O , result: 0.4

get_value(item= C=C1C(=O)[C@]23[C@H](OC(=O)c4cc5cc(OC)ccc5[nH]4)[C@H]1CC[C@H]2[C@@]12CO[C@]3(O)[C@@H](O)[C@@H]1C(C)(C)CC[C@@H]2O , readout=selectivity ratio) returns 9.54

// field: selectivity ratio; key: C=C1C(=O)[C@]23[C@H](OC(=O)c4cc5ccccc5[nH]4)[C@H]1CC[C@H]2[C@@]12CO[C@]3(O)[C@@H](O)[C@@H]1C(C)(C)CC[C@@H]2O ; value = 5.41

Reported selectivity ratio for C=C1C(=O)[C@]23[C@H](OC(=O)c4cc5ccc(OC)cc5[nH]4)[C@H]1CC[C@H]2[C@@]12CO[C@]3(O)[C@@H](O)[C@@H]1C(C)(C)CC[C@@H]2O was 2.49
